experimental details: qHTS assay for small molecule activators of the heat shock response signaling pathway - cell viability counter screen (AID 743209); note: nearly all actives have a fitted effect of over 50% in size
condition: HSE-bla HeLa viability, CellTiter-Glo luminescence, 5 h; series mostly up to 62.6 µM
Records with an inconclusive call do not appear. Activity calls are given as the source filed them. Calls come from the whole dose curve; as a rule, active = well fitted cell-killing curve with a large enough effect in the repeat runs; inconclusive = weak or mixed curves, or effect the other way; inactive = no such curve, though single readings can be large or run the other way.
One label from this list, please: label 1 = active, label 0 = inactive

Example results:
>  <smi>
Nc1ccccc1

>  <label>
label 0

$$$$
>  <smi>
CC[N+](CC)(CC)CC

>  <label>
label 0

$$$$
>  <smi>
CCCCCCCCCCn1cc[n+](C)c1

>  <label>
label 1

$$$$
>  <smi>
CC[N+]1(C)CCCC1

>  <label>
label 0

$$$$

Data request: Just curious, what result did CCCCCCCCn1cc[n+](C)c1 get here?
Data returned: label 0

Data request: Just curious, what result did Oc1ccccc1-c1ccccc1 get here?
Data returned: label 0
